- Tested on: SW948 (Colorectal Carcinoma)
- assayExplanation: combination Emax (second highest fraction inhibited in the dose matrix, 72 h); higher = more inhibition; extreme values may be limits of the assay
The following molecules are shown together with reported combination Emax values.

Could you please provide reported combination Emax for COc1cccc(OCCCN)c1-c1cc(Nc2cnc(C#N)cn2)n[nH]1 [Prexasertib] + O=C(c1cc(Cc2n[nH]c(=O)c3ccccc23)ccc1F)N1CCN(C(=O)C2CC2)CC1 [Olaparib] (first compound max 1 µM, 7x7, partner max 10 µM) ? Thanks!
0.838

Using known records, supply combination Emax for C[C@@H]1COCCN1c1cc(C2([S@](C)(=N)=O)CC2)nc(-c2ccnc3[nH]ccc23)n1 [AZD6738] + Nc1ccn([C@@H]2O[C@H](CO)[C@@H](O)C2(F)F)c(=O)n1 [Gemcitabine] (first compound max 10 µM, 7x7, partner max 0.3 µM)
0.873

For the molecule C=CCn1c(=O)c2cnc(Nc3ccc(N4CCN(C)CC4)cc3)nc2n1-c1cccc(C(C)(C)O)n1 [AZD1775] + Nc1ccn([C@@H]2O[C@H](CO)[C@@H](O)C2(F)F)c(=O)n1 [Gemcitabine] (first compound max 1 µM, partner max 0.3 µM) , report combination Emax.
0.879

Give the value of combination Emax reported for the following: COc1nnc2ccc(N3CCC(c4ccc(OCCN5CCN(C)C(=O)[C@H]5C)cc4)CC3)nn12 [AZD5153] + C=CCn1c(=O)c2cnc(Nc3ccc(N4CCN(C)CC4)cc3)nc2n1-c1cccc(C(C)(C)O)n1 [AZD1775] (first compound max 1 µM, partner max 1 µM)
0.655

Could you please provide reported combination Emax for Cc1cc2ncnn2cc1Nc1ncc2c(n1)n(C1CCOCC1)c(=O)n2C [AZD7648] + CCN(CCO)CCCOc1ccc2c(Nc3cc(CC(=O)Nc4cccc(F)c4)[nH]n3)ncnc2c1 [AZD2811] (first compound max 10 µM, 7x7, partner max 1 µM) ? Thanks!
0.737

Using known records, supply combination Emax for COc1cc2c(cc1OCCCCCOc1cc3c(cc1OC)C(=O)N1C=C(C)C[C@H]1C=N3)N=C[C@@H]1CC(C)=CN1C2=O [SG3199] + O=C(c1cc(Cc2n[nH]c(=O)c3ccccc23)ccc1F)N1CCN(C(=O)C2CC2)CC1 [Olaparib] (first compound max 0.001 µM, 7x7, partner max 10 µM)
0.185
